FYI, the data here is from the supplement of paper PMC13380429.

tested on: Caco-2; test: cell viability relative to DMSO; higher = less toxic; conditions: 72 h; 1 nM
quantity_kind: cell viability (%)
One number for each entry, in %.

O=C(Nc1c(Cl)cncc1Cl)c1ccc(OC(F)F)c(OCC2CC2)c1 ... 104
N[C@H]1CCN(O)C1=O [HA-966-(S)-(-)] ... 103
Nc1ccc(C(=O)O)c(O)c1 [aminosalicylate] ... 95.7
CC(Oc1c(Cl)cccc1Cl)C1=NCCN1 (centres undefined) ... 100
CC(C)(C)NCC(O)c1ccc(O)c(CO)c1 (centres undefined) ... 101

Report cell viability for every entry below.
1. COC(=O)c1ccccc1O [methyl-salicylate]
2. CC(C)[C@H]1C(=O)N[C@@H](CCCNC(=N)N)C(=O)NCC(=O)N[C@@H](CC(=O)O)C(=O)N[C@H](Cc2ccccc2)C(=O)N1C [cilengitide]
3. C[C@@]1(O)[C@H](O)[C@@H](CO)O[C@H]1n1cnc2c(NC3CCCC3)nc(Cl)nc21

1. 103
2. 98.6
3. 95.9

get_value(item= O=C1CCC(N2C(=O)c3ccccc3C2=O)C(=O)N1 (centres undefined) [thalidomide] , readout=cell viability) returns 89.6
